Test system: E. faecalis (ATCC 29122)
Assay: Antibacterial viability (CFU) assay, IC50
Assay type: cell-based
Conditions: Enterococcus faecalis, ATCC29122
Consider the following compounds; for each one, report its IC50.

What does the data say about its IC50? Entry: CCOC(=O)C1=C(C)OC(N)=C(C#N)C1c1cccc(O)c1Cl (stereo not shown)
31.8 µM

What does the data say about its IC50? Entry: CC1=C(C(=O)OCc2ccccc2)C(c2ccc(C#N)cc2)C(C#N)=C(N)O1 (stereo not shown)
45.4 µM

What does the data say about its IC50? Entry: CC1=C(C(=O)OCc2ccccc2)C(c2ccc(F)cc2)C(C#N)=C(N)O1 (stereo not shown)
37.5 µM

# map each compound to its IC50
1. Cc1[nH]nc2c1C(c1cccc(O)c1Cl)C(C#N)=C(N)O2 (stereo not shown)
2. COc1cccc(C2C(C#N)=C(N)OC(C)=C2C(=O)OCc2ccccc2)c1[N+](=O)[O-] (stereo not shown)
3. CC1=C(C(=O)OCc2ccccc2)C(c2ccc(Cl)cc2Cl)C(C#N)=C(N)O1 (stereo not shown)
4. CCOC(=O)C1=C(C)OC(N)=C(C#N)C1c1cccc(-c2ccccc2)c1 (stereo not shown)
5. CC1=C(C(=O)OCc2ccccc2)C(c2ccccc2Cl)C(C#N)=C(N)O1 (stereo not shown)
6. CC1(C)S[C@@H]2[C@H](NC(=O)[C@H](N)c3ccccc3)C(=O)N2[C@H]1C(=O)O [Ampicillin, reference compound]

1: 51.9 µM; 2: 41.1 µM; 3: 35.3 µM; 4: 37.3 µM; 5: 37.8 µM; 6: 36.5 µM

# map each compound to its IC50
1. COc1cc(C2C(C#N)=C(N)OC(C)=C2C(=O)OCc2ccccc2)cc(OC)c1OC (stereo not shown)
2. COc1cc(OC)c(C2C(C#N)=C(N)Oc3n[nH]c(C)c32)c(OC)c1 (stereo not shown)
3. COc1ccc(C2C(C#N)=C(N)OC(C)=C2C(=O)OCc2ccccc2)cc1 (stereo not shown)

1. 29.1 µM
2. 45.1 µM
3. 28.2 µM
